Listed below: IC20 values for each entry.
tested-system: TTR (Homo sapiens)
assay: FITC-T4 TTR competitive binding assay
measurement-context: 20% inhibition of FITC-T4 binding to TTR; 30 nM TTR, 110 nM FITC-T4, 2 h at 4°C, pH 8.0
Report the figure in nM without appending any unit label.

O=C(O)C(F)(F)C(F)(F)C(F)(F)C(F)(F)C(F)(F)C(F)(F)C(F)(F)C(F)(F)C(F)(F)F :: 1700
O=C(O)C(F)(F)C(F)(F)C(F)(F)C(F)(F)C(F)(F)C(F)(F)C(F)(F)C(F)(F)F :: 360
O=C(O)C(F)(F)C(F)(F)C(F)(F)C(F)(F)C(F)(F)C(F)(F)C(F)(F)C(F)(F)C(F)(F)C(F)(F)F :: 1000
O=S(=O)(O)C(F)(F)C(F)(F)C(F)(F)C(F)(F)F :: 2300
O=S(=O)(O)C(F)(F)C(F)(F)C(F)(F)C(F)(F)C(F)(F)C(F)(F)C(F)(F)C(F)(F)F :: 82

Incoming: Recorded IC20 for Oc1cc(Br)cc(Br)c1Oc1cc(Br)c(Br)cc1Br , please?
Outgoing: 8.4

Incoming: Recorded IC20 for CC(C)(c1cc(Br)c(O)c(Br)c1)c1cc(Br)c(O)c(Br)c1 , please?
Outgoing: 14

Incoming: Recorded IC20 for Oc1cc(Oc2ccc(Br)cc2Br)c(Br)cc1Br , please?
Outgoing: 14
